Entries and their measured viability at 20 h, 50 µM follow.
Experiment: Cytotoxicity against LPS-stimulated mouse RAW264.7 cells assessed as cell survival at 50 uM preincubated for 15 mins followed by LPS challenge measured after 20 hrs by SRB assay relative to control
Assay type: cell-based
Conditions: LPS-stimulated RAW264.7 cells, read-out: Survival
Record the value in %, omitting the unit from your answer.

Some entries whose results are on file:
{"Compound": "CC[C@H](C)/C=C/C1=CC2=C(Cl)C(=O)[C@@](C)(O)[C@@H](CC(=O)[C@@H](C)[C@H](C)O)C2=CO1", "Unit spec": "%", "viability at 20 h, 50 µM": 71.1}
{"Compound": "C/C=C(\\C)C(=O)C[C@H]1C2=COC(/C=C/[C@H](C)[C@@H](C)O)=CC2=C(Cl)C(=O)[C@@]1(C)O", "Unit spec": "%", "viability at 20 h, 50 µM": 32.9}
{"Compound": "CC[C@H](C)/C=C/C1=CC2=C(Cl)C(=O)[C@@]3(C)OC4=C(C(=O)O[C@H](C)[C@H]4C)[C@H]3C2=CO1", "Unit spec": "%", "viability at 20 h, 50 µM": 28.5}
{"Compound": "CC[C@H](C)/C=C/C1=CC2=C(Cl)C(=O)[C@@]3(C)O[C@]4(OC)[C@H](C)[C@@H](C)OC(=O)[C@@H]4[C@H]3C2=CO1", "Unit spec": "%", "viability at 20 h, 50 µM": 28}
{"Compound": "C/C=C(\\C)C(=O)C[C@H]1C2=COC(/C=C/[C@@H](C)CC)=CC2=C(Cl)C(=O)[C@@]1(C)O", "Unit spec": "%", "viability at 20 h, 50 µM": 36.2}
{"Compound": "CC[C@H](C)/C=C/C1=CC2=C(Cl)C(=O)[C@@]3(C)O[C@]4(O)[C@H](C)[C@@H](C)OC(=O)[C@@H]4[C@H]3C2=CO1", "Unit spec": "%", "viability at 20 h, 50 µM": 85.3}

Which value of viability at 20 h, 50 µM has been reported for C/C=C(\C)C(=O)C[C@H]1C2=COC(/C=C/[C@@H](C)[C@@H](C)O)=CC2=C(Cl)C(=O)[C@@]1(C)O in the records? 37.1

Which value of viability at 20 h, 50 µM has been reported for CCC(C)(O)/C=C/C1=CC2=C(Cl)C(=O)[C@@]3(C)O[C@]4(O)[C@H](C)[C@@H](C)OC(=O)[C@@H]4[C@H]3C2=CO1 (mixture of isomers) in the records? 95.7
